Biological target: Sentrin-specific protease 6 (Homo sapiens);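 further: Luminescence-based dose-response confirmatory assay of SENP6 inhibition, following up an ultra-high-throughput screen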
Sequence (Q9GZR1 whole entry): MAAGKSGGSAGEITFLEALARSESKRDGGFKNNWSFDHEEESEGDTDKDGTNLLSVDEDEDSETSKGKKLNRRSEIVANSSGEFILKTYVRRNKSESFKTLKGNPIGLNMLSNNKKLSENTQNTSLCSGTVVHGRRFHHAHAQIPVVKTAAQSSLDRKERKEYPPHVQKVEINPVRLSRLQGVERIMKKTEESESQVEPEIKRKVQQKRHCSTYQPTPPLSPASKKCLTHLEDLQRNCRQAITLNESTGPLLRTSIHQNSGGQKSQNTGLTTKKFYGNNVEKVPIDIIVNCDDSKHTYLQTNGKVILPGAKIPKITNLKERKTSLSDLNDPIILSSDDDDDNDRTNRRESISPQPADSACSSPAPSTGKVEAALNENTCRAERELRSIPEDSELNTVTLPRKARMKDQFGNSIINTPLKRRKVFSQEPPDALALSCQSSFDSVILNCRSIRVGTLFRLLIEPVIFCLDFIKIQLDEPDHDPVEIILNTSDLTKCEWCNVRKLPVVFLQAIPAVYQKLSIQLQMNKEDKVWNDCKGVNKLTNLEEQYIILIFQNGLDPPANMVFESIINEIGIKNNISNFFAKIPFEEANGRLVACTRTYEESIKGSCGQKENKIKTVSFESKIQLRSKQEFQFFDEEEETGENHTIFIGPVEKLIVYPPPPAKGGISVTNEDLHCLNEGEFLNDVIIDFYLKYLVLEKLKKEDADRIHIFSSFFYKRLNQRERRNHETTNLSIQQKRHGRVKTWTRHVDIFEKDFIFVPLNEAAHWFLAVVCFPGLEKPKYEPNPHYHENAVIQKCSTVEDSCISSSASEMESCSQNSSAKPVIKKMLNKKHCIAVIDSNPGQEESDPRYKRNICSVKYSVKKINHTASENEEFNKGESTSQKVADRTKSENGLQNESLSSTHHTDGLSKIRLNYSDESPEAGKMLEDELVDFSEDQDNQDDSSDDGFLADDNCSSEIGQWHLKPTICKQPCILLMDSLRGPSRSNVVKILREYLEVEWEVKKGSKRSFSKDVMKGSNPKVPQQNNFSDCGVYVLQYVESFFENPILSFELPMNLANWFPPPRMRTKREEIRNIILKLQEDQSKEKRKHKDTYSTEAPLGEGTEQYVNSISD
Format: functional
Active and inactive are the calls of the source.
Your reply should match one of these outcome classes. active, inactive

QUERY: # lookup: test call for CCOC(=O)c1cc2ccc3ccccc3c2s1
RESULT: active

QUERY: And then CCCOC(=O)c1ccc(NC(=O)/C=C/c2cccs2)cc1 , what is it?
RESULT: active

QUERY: And then Cc1cccc(NCc2nc3ccccc3n2Cc2ccccc2)c1 , what is it?
RESULT: active

QUERY: And then CCN(CC)c1ccc(/C=N/NC(=O)c2ccoc2C)c(O)c1 , what is it?
RESULT: active

QUERY: And then Cc1ccc(Nc2ncnc3c2oc2ccccc23)cc1 , what is it?
RESULT: inactive
